Assay: Chemical stability of compound assessed as half life in PBS at pH 7.3 by RP18-HPLC analysis
Assay type: physicochemical
Reported metric: half-life (h)

| Compound | Quantitative readout |
| --- | --- |
| CCCCCCCCCCCCCCCCCC(=O)Oc1ccc(COP(=O)(OCc2ccc(C(=O)CCCCCCCCC)cc2)OP(=O)(O)OP(=O)(O)OC[C@@H]2C=C[C@H](n3cc(C)c(=O)[nH]c3=O)O2)cc1 (stereo partly drawn) | 94 |
| CCCCCCCCCCCCCCCCCC(=O)Oc1ccc(COP(=O)(OCc2ccc(C(=O)CCCCCCCCCCCCCCCCC)cc2)OP(=O)(O)OP(=O)(O)OC[C@@H]2C=C[C@H](n3cc(C)c(=O)[nH]c3=O)O2)cc1 (stereo partly drawn) | 11 |
| CCCCCCCCCCCCCCCCCC(=O)c1ccc(COP(=O)(OCc2ccc(OC(=O)CCCCCC)cc2)OP(=O)(O)OP(=O)(O)OC[C@@H]2C=C[C@H](n3cc(C)c(=O)[nH]c3=O)O2)cc1 (stereo partly drawn) | 109 |
